Origin of values: patent US20260242395A1

Target: CDK6/CyclinD3 (Homo sapiens, UniProt Q00534)
Sequence (Q00534 whole entry): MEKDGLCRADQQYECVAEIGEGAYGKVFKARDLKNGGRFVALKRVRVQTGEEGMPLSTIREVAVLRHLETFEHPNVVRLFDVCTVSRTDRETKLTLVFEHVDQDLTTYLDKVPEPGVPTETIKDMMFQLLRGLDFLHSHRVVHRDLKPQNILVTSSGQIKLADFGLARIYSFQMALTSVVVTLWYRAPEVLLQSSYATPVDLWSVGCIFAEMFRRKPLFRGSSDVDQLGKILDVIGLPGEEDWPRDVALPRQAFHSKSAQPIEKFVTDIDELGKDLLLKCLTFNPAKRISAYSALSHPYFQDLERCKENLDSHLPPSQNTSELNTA
Sequence (P30281 whole entry partner): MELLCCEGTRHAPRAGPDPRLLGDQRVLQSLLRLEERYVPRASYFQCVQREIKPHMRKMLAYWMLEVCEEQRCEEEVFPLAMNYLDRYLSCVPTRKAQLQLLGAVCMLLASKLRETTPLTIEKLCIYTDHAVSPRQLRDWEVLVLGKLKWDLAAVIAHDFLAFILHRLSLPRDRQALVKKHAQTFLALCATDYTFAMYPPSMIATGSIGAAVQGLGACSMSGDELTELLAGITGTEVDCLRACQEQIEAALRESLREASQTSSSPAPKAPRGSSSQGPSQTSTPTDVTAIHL
Test: CDK6/CyclinD3 kinase inhibitory activity (Caliper mobility shift)
Conditions: enzyme 15 nM, ATP 800 μM, 28° C. 30 min; read-out: CDK6/Cyclin D3 IC50
Description: CDK6/CyclinD3 kinase inhibitory activity (IC50): 5 μl of various dilutions of test compound in 1× kinase buffer (50 mM HEPES pH 7.5, 10 mM MgCl2, 2 mM DTT and 0.01% Brij-35) was mixed with 10 μL of CDK6/CyclinD3 (Carna, 04-107 #, final concentration 15 nM in 1× Kinase buffer) in 384 plates and incubated at room temperature for 10 min. […]
pIC50: −log10 of the molar value.
# pIC50 per record follows

Sample answers from the record:
CC(C)(O)c1cnc2c(F)cc(-c3nc(Nc4ccc(-c5cn[nH]c5)cn4)ncc3F)cc2c1Cl
≤ 6.00
Cc1c(C(C)NC2CC2)cnc2c(F)cc(-c3nc(N[C@@H]4CCOC[C@H]4O)ncc3F)cc12 (single isomer, unassigned) [Example 93b]
6.00 to 7.00
Cc1c(C(C)O)cnc2c(F)cc(-c3nc(N[C@@H]4CCOC[C@H]4O)ncc3Cl)cc12 (single isomer, unassigned) [Example 88b]
7.00 to 8.00
[2H]c1nc2c(F)cc(-c3nc(N[C@@H]4CCOC[C@H]4O)ncc3Cl)cc2c2c1CC1(CC1)NC2
6.00 to 7.00
CC(C)(O)c1cnc2c(F)cc(-c3nc(N[C@@H]4CCOC[C@H]4O)ncc3C#N)cc2c1
6.00 to 7.00

Task: Param readout = pIC50; param system = CDK6/CyclinD3 (Homo sapiens, UniProt Q00534); param query = `[2H]c1nc(N[C@@H]2CCOC[C@H]2O)nc(-c2cc(F)c3nc(C)c(C(C)(C)O)cc3c2)c1F` ; response: value
Result: 6.00 to 7.00

Task: Param readout = pIC50; param system = CDK6/CyclinD3 (Homo sapiens, UniProt Q00534); param query = CNC(C)c1cc2cc(-c3nc(N[C@@H]4CCOC[C@H]4O)ncc3F)cc(F)c2nc1C (single isomer, unassigned) [Example 54a] ; response: value
Result: 6.00 to 7.00

Task: Param readout = pIC50; param system = CDK6/CyclinD3 (Homo sapiens, UniProt Q00534); param query = `Cc1nc2c(F)cc(-c3nc(N[C@@H]4CCOC[C@H]4O)ncc3Cl)cc2c2c1CCNC2` ; response: value
Result: 6.00 to 7.00

Task: Param readout = pIC50; param system = CDK6/CyclinD3 (Homo sapiens, UniProt Q00534); param query = `O[C@@H]1COCC[C@H]1Nc1ncc(Cl)c(-c2cc(F)c3ncc(C4(O)CC4)cc3c2)n1` ; response: value
Result: 6.00 to 7.00

====

# IC50 per record follows
Target: CDK6/CyclinD3 (Homo sapiens, UniProt Q00534)
Assay: CDK6/CyclinD3 kinase inhibitory activity (Caliper mobility shift)
Conditions: enzyme 15 nM, ATP 800 μM, 28° C. 30 min; read-out: CDK6/Cyclin D3 IC50

Task: Param readout = IC50; param system = CDK6/CyclinD3 (Homo sapiens, UniProt Q00534); param query = `O[C@@H]1COCC[C@H]1Nc1ncc(Cl)c(-c2cc(F)c3ncc(C4(O)CCC4)cc3c2)n1` ; response: value
Result: 100 to 1000 nM

Task: Param readout = IC50; param system = CDK6/CyclinD3 (Homo sapiens, UniProt Q00534); param query = Cc1nc2c(F)cc(-c3nc(N[C@@H]4CCOC[C@H]4O)ncc3Cl)cc2cc1C1CCCN1 (single isomer, unassigned) [Example 57b] ; response: value
Result: ≥ 1000 nM

Task: Param readout = IC50; param system = CDK6/CyclinD3 (Homo sapiens, UniProt Q00534); param query = `CC(C)(O)c1cnc2c(F)cc(-c3nc(N[C@@H]4CCOC[C@H]4O)ncc3Cl)cc2c1` ; response: value
Result: 100 to 1000 nM

Task: Param readout = IC50; param system = CDK6/CyclinD3 (Homo sapiens, UniProt Q00534); param query = `Cc1nc2c(F)cc(-c3nc(N[C@@H]4CCOC[C@H]4O)ncc3Cl)cc2c2c1CC(C)(C)NC2` ; response: value
Result: 100 to 1000 nM

Task: Param readout = IC50; param system = CDK6/CyclinD3 (Homo sapiens, UniProt Q00534); param query = CNC(C)c1cnc2c(F)cc(-c3nc(N[C@@H]4CCOC[C@H]4O)ncc3Cl)cc2c1Cl (single isomer, unassigned) [Example 63a] ; response: value
Result: 100 to 1000 nM

Task: Param readout = IC50; param system = CDK6/CyclinD3 (Homo sapiens, UniProt Q00534); param query = CN1Cc2c(cnc3c(F)cc(-c4nc(N[C@@H]5CCOC[C@H]5O)ncc4Cl)cc23)C(O)C1(C)C (single isomer, unassigned) [Example 111b] ; response: value
Result: ≥ 1000 nM

Task: Param readout = IC50; param system = CDK6/CyclinD3 (Homo sapiens, UniProt Q00534); param query = Cc1nc2c(F)cc(-c3ccnc(N[C@@H]4CCOC[C@H]4O)n3)cc2c(C)c1C(C)O (single isomer, unassigned) [Example 82b] ; response: value
Result: 100 to 1000 nM

Task: Param readout = IC50; param system = CDK6/CyclinD3 (Homo sapiens, UniProt Q00534); param query = O[C@@H]1COCC[C@H]1Nc1ncc(Cl)c(-c2cc(F)c3ncc4c(c3c2)C2CCC(C4)N2)n1 (single isomer, unassigned) [Example 20b] ; response: value
Result: 100 to 1000 nM

Task: Param readout = IC50; param system = CDK6/CyclinD3 (Homo sapiens, UniProt Q00534); param query = Cc1nc2c(F)cc(-c3nc(N[C@@H]4CCOC[C@H]4O)ncc3Cl)cc2cc1C1CCCN1 (single isomer, unassigned) [Example 57a] ; response: value
Result: 100 to 1000 nM

Task: Param readout = IC50; param system = CDK6/CyclinD3 (Homo sapiens, UniProt Q00534); param query = Cc1nc2c(F)cc(-c3nc(N[C@@H]4CCOC[C@H]4O)ncc3Cl)cc2cc1C(C)NC1CC1 (single isomer, unassigned) [Example 73b] ; response: value
Result: 10 to 100 nM

Task: Param readout = IC50; param system = CDK6/CyclinD3 (Homo sapiens, UniProt Q00534); param query = `CC(C)(O)c1cnc2c(F)cc(-c3ccnc(N[C@@H]4CCOC[C@H]4O)n3)cc2c1Cl` ; response: value
Result: 100 to 1000 nM

Task: Param readout = IC50; param system = CDK6/CyclinD3 (Homo sapiens, UniProt Q00534); param query = `Cc1c(C(C)(C)O)cnc2c(C)cc(-c3nc(N[C@@H]4CCOC[C@H]4O)ncc3Cl)cc12` ; response: value
Result: 100 to 1000 nM

Task: Param readout = IC50; param system = CDK6/CyclinD3 (Homo sapiens, UniProt Q00534); param query = `[2H]c1nc2c(F)cc(-c3ccnc(N[C@@H]4CCOC[C@H]4O)n3)cc2c2c1CC(C)(C)NC2` ; response: value
Result: 100 to 1000 nM

Task: Param readout = IC50; param system = CDK6/CyclinD3 (Homo sapiens, UniProt Q00534); param query = `Cc1nc2c(F)cc(-c3nc(N[C@@H]4CCOC[C@H]4O)ncc3Cl)cc2c2c1CCN(C)C2` ; response: value
Result: 100 to 1000 nM

====

Molecular target: CDK7/CyclinH/MAT1 (Homo sapiens, UniProt P50613)
Sequence (P50613 whole entry): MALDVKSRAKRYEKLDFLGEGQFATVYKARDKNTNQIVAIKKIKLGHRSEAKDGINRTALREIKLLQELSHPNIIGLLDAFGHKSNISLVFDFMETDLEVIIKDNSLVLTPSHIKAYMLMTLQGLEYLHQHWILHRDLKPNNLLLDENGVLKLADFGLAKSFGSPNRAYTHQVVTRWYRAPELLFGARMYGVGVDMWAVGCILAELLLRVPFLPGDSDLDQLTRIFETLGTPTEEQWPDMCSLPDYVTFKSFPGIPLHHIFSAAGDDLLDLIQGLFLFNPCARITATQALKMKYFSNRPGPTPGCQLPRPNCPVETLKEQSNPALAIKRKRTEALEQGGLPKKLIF
Sequence (P51946 whole entry partner): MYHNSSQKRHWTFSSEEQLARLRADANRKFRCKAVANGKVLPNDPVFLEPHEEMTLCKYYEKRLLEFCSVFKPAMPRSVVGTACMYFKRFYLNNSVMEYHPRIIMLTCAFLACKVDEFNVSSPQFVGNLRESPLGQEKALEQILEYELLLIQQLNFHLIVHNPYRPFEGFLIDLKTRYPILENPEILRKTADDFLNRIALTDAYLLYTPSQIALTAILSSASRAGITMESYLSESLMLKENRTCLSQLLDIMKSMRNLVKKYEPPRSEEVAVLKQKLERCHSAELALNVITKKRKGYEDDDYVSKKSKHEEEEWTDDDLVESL
Sequence (P51948 whole entry partner): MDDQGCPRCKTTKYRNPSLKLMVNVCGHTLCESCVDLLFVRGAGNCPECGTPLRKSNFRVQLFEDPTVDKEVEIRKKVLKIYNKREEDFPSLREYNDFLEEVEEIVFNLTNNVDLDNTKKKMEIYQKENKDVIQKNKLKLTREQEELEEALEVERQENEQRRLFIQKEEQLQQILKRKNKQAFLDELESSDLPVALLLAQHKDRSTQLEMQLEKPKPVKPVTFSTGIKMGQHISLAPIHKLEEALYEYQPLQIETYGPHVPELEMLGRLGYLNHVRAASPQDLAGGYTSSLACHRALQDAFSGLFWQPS
Assay: CDK7/CyclinH/MAT1 kinase inhibitory activity (Caliper mobility shift)
Conditions: enzyme 12.5 nM, ATP 70 μM, 28° C. 30 min; read-out: CDK7/Cyclin H/MAT1 IC50
pIC50: −log10 of the molar value.
# pIC50 per record follows

Sample answers from the record:
Cc1c(C(C)O)cnc2c(F)cc(-c3nc(N[C@@H]4CCOC[C@H]4O)ncc3Cl)cc12 (single isomer, unassigned) [Example 88a]
6.00 to 7.00
O[C@@H]1COCC[C@H]1Nc1ncc(Cl)c(-c2cc(F)c3ncc4c(c3c2)C2CCC(C4)N2)n1 (single isomer, unassigned) [Example 20b]
6.00 to 7.00
Cc1nc2c(F)cc(-c3nc(N[C@@H]4CCOC[C@H]4O)ncc3Cl)cc2cc1C(C)NC1CC1 (single isomer, unassigned) [Example 73b]
≤ 6.00
Cc1nc2c(F)cc(-c3nc(N[C@@H]4CCOC[C@H]4O)ncc3F)cc2c(C)c1C(C)O (single isomer, unassigned) [Example 81b]
6.00 to 7.00
CC(C)(O)c1cnc2c(F)cc(-c3nc(N[C@@H]4CCOC[C@H]4O)ncc3F)cc2c1Cl
6.00 to 7.00

Task: Param readout = pIC50; param system = CDK7/CyclinH/MAT1 (Homo sapiens, UniProt P50613); param query = `Cc1c(C(C)(C)O)cnc2c(C)cc(-c3nc(N[C@@H]4CCOC[C@H]4O)ncc3Cl)cc12` ; response: value
Result: ≤ 6.00
